Numbers sourced from PubChem BioAssay (NCI).

Give measured TGI for each item. Keep answers brief.
# Test system: HCT-15 colon
# PROCEDURE_TEXT: NCI tumour cell line growth inhibition, 48 h

CC1(C)C=CC(=O)C(O)C(C)(C)C1=O (stereo unspecified)
> 100 µM
CCOC(=O)CC/C(=N/Nc1ccc(Cl)cc1[N+](=O)[O-])C(=O)OCC
> 100 µM
COc1cc2c(cc1OCCCN1CCN(CCCOc3cc4c(cc3OC)C(=O)N3CC(F)(F)C[C@H]3C=N4)CC1)N=C[C@@H]1CC(F)(F)CN1C2=O
36.7 µM
COc1ccc(N2C(=O)C3c4[nH]c5cc(C)ccc5c4C4CCC(C(C)(C)C)CC4C3C2=O)cc1 (stereo unspecified)
> 10 µM

Provide TGI for all items below, preserving their order.
1. Cc1ccsc1/C=N/Nc1cnccn1
2. CCCN(CCC)c1c([N+](=O)[O-])cc(C(=O)N(CC)CC)cc1[N+](=O)[O-]
3. CC1(C)CCc2c(ccc(C(=O)/C=C/c3ccc(O)cc3)c2O)O1
4. c1ccc2c(c1)CCc1c(-c3ccncc3)n[nH]c1-2
5. C=C(C)C(C1C=C(CCC(C=O)=C(C)C)C(=O)O1)C1(OC)C=C(C)C(=O)O1 (stereo unspecified)

Key:
1. > 100 µM
2. 90.9 µM
3. 20.5 µM
4. 87.4 µM
5. > 100 µM

Provide TGI for all items below, preserving their order.
1. CCOc1ccc(OCC(=O)O)c2c1CCCC2=O
2. CC1OC(O[C@H]2C3C=CO[C@@H](OC4OC(CO)C(O)C(O)C4O)C3[C@@]3(COC(=O)/C=C/c4ccccc4)O[C@@H]23)C(O)C(O)C1O (stereo partly specified)
3. O=C(O)c1cccc(S(=O)(=O)NN2C(=O)CSC2c2ccc(Cl)cc2Cl)c1 (stereo unspecified)
4. O=S(=O)(OI(OI(OS(=O)(=O)C(F)(F)F)c1ccccc1)c1ccccc1)C(F)(F)F
5. O=C(NN1C(=O)CS(=O)(=O)C1c1ccc(C(F)(F)F)cc1)c1ccncc1 (stereo unspecified)
6. CC(C)(C)OC(=O)NC(CSSCC(NC(=O)OC(C)(C)C)C(=O)O)C(=O)O (stereo unspecified)

Key:
["> 100 µM", "> 100 µM", "> 100 µM", "> 100 µM", "> 100 µM", "> 100 µM"]

Provide TGI for all items below, preserving their order.
1. COc1c2occc2c(N)c2ccc(=O)oc12
2. O=C1C=C(c2c(O)ccc3ccccc23)c2cc(O)ccc2C1=O
3. COc1ccc(CNc2c3ccccc3nc3ccccc23)cc1F
4. Cc1cc(C(=O)CSC(=S)SC(C)(C)C)ccc1Cl
5. O=C(CNc1ccc(Cl)cc1Cl)Nn1c(-c2ccccc2)nc2ccccc2c1=O
6. CO/N=C(/C(=O)OC)c1ccccc1COc1ccccc1C(F)(F)F

Key:
["> 100 µM", "33 µM", "7.8 µM", "57.6 µM", "33.5 µM", "> 100 µM"]
